Below is a list of entries, each paired with its recorded MIC50 value.
# Tested on: aspergillus fumigatus infection of BEAS2B cells
# assay info: Aspergillus fumigatus infection of bronchial epithelial cells (GM in supernatant)
# Format: cell-based
# condition set: bronchial epithelial cells infected with Aspergillus fumigatus; read-out: MIC50 Infection of BEAS2B cells
assay metric: MIC50

INSERT INTO results (compound, experimental_result) VALUES
  ('Cc1cc(N2CCN(c3ccc(C(=O)Nc4cc(C#N)ccn4)cc3)CC2)ccc1OC[C@@H]1CO[C@@](Cn2cncn2)(c2ccc(F)cc2F)C1', '0.0188 µM'),
  ('Cc1cc(N2CCN(c3ccc(C(=O)Nc4ccc(C#N)cc4)cc3)CC2)ccc1OC[C@@H]1CO[C@@](Cn2cncn2)(c2ccc(F)cc2F)C1', '0.00521 µM'),
  ('Cc1nc(N2CCN(c3ccc(C(=O)Nc4ccc(F)cc4)cc3)CC2)ccc1OC[C@@H]1CO[C@@](Cn2cncn2)(c2ccc(F)cc2F)C1', '0.0517 µM'),
  ('O=C(Nc1ccc(F)cc1)c1ccc(N2CCN(c3ccc(OCC4CO[C@@](Cn5cncn5)(c5ccc(F)cc5F)C4)c(Cl)c3)CC2)cc1 (stereo in doubt)', '0.0866 µM'),
  ('COc1cc(N2CCN(c3ccc(OC[C@@H]4CO[C@@](Cn5cncn5)(c5ccc(F)cc5F)C4)c(C)c3)CC2)ccc1C(=O)Nc1ccc(F)cc1', '0.125 µM'),
  ('Cc1cc(N2CCN(c3ccc(C(=O)Nc4ccc(F)cc4)cc3)CC2)c(C)cc1OC[C@@H]1CO[C@@](Cn2cncn2)(c2ccc(F)cc2F)C1', '0.123 µM');

----------
# assay info: Cell viability: resazurin assay
# Assay type: cell-based, human
# condition set: human, BEAS2B cells; n = 3-5
assay metric: CC50 at 1 day

INSERT INTO assay_data (molecule, assay_metric, experimental_result) VALUES
  ('N#Cc1cc(N2CCN(c3ccc(C(=O)Nc4ccc(F)cc4)cc3)CC2)ccc1OC[C@@H]1CO[C@@](Cn2cncn2)(c2ccc(F)cc2F)C1 [Example 4]', 'CC50 at 1 day', '> 14.4 µM'),
  ('Cc1cc(N2CCN(c3ccc(C(=O)Nc4ccc(F)cc4)cc3)CC2)c(C)cc1OC[C@@H]1CO[C@@](Cn2cncn2)(c2ccc(F)cc2F)C1 [Example 5]', 'CC50 at 1 day', '> 14.4 µM'),
  ('Cc1cc(N2CCN(c3ccc(C(=O)Nc4ccc(S(N)(=O)=O)cc4)cc3)CC2)ccc1OC[C@@H]1CO[C@@](Cn2cncn2)(c2ccc(F)cc2F)C1 [Example 19]', 'CC50 at 1 day', '> 13.4 µM');

----------
# System: Aspergillus fumigatus NCPF2010
# assay info: Broth microdilution assay (modified EUCAST)
# Type: cell-based
# condition set: Aspergillus fumigatus, NCPF2010, read-out: MIC75 against Aspergillus fumigatus isolate NCPF2010
assay metric: MIC (µM)

INSERT INTO measurements (compound, measure_unit, experimental_result) VALUES
  ('N#Cc1ccc(NC(=O)c2ccc(N3CCN(c4ccc(OC[C@@H]5CO[C@@](Cn6cncn6)(c6ccc(F)cc6F)C5)c(CO)c4)CC3)cc2)nc1 [Example 38]', 'µM', 0.0124),
  ('Cc1cc(N2CCN(c3ccc(C(=O)Nc4ccc(C#N)cn4)cc3)CC2)ccc1OC[C@@H]1CO[C@@](Cn2cncn2)(c2ccc(F)cc2F)C1 [Example 7]', 'µM', 0.00586),
  ('Cc1cc(N2CCN(c3ccc(C(=O)Nc4ccc(Cl)c(F)c4)cc3)CC2)ccc1OC[C@@H]1CO[C@@](Cn2cncn2)(c2ccc(F)cc2F)C1 [Example 30]', 'µM', 0.0584),
  ('Cc1cc(N2CCN(c3ccc(C(=O)Nc4cccc(C#N)c4)cc3)CC2)ccc1OC[C@@H]1CO[C@@](Cn2cncn2)(c2ccc(F)cc2F)C1 [Example 8]', 'µM', 0.0127),
  ('Cc1cc(N2CCN(c3ccc(C(=O)Nc4cccc(F)c4)cc3)CC2)ccc1OC[C@@H]1CO[C@@](Cn2cncn2)(c2ccc(F)cc2F)C1 [Example 14]', 'µM', 0.0431),
  ('Cc1cc(N2CCN(c3ccc(C(=O)Nc4ccc(OC(F)(F)F)cn4)cc3)CC2)ccc1OC[C@@H]1CO[C@@](Cn2cncn2)(c2ccc(F)cc2F)C1 [Example 39]', 'µM', 0.052),
  ('N#Cc1cc(N2CCN(c3ccc(C(=O)Nc4ccc(F)cc4)cc3)CC2)ccc1OC[C@@H]1CO[C@@](Cn2cncn2)(c2ccc(F)cc2F)C1 [Example 4]', 'µM', 0.00868),
  ('Cc1cc(N2CCN(c3ccc(C(=O)Nc4ccc(Cl)cc4F)cc3)CC2)ccc1OC[C@@H]1CO[C@@](Cn2cncn2)(c2ccc(F)cc2F)C1 [Example 29]', 'µM', 0.0285),
  ('Cc1cc(N2CCN(c3ccc(C(=O)Nc4ccc(Cl)cn4)cc3)CC2)ccc1OC[C@@H]1CO[C@@](Cn2cncn2)(c2ccc(F)cc2F)C1 [Example 41]', 'µM', 0.0576),
  ('Cc1cc(N2CCN(c3ccc(C(=O)Nc4cc(C#N)ccn4)cc3)CC2)ccc1OC[C@@H]1CO[C@@](Cn2cncn2)(c2ccc(F)cc2F)C1 [Example 37]', 'µM', 0.0284),
  ('O=C(Nc1ccc(F)cc1)c1ccc(N2CCN(c3ccc(OCC4CO[C@@](Cn5cncn5)(c5ccc(F)cc5F)C4)c(F)c3)CC2)cc1 (stereo in doubt) [Example 17]', 'µM', 0.00215),
  ('Cc1cc(N2CCN(c3ccc(C(=O)Nc4ccc(F)cc4)cc3)CC2)c(C)cc1OC[C@@H]1CO[C@@](Cn2cncn2)(c2ccc(F)cc2F)C1 [Example 5]', 'µM', 0.0133),
  ('N#Cc1ccc(NC(=O)c2ccc(N3CCN(c4ccc(OCC5CO[C@@](Cn6cncn6)(c6ccc(F)cc6F)C5)c(Cl)c4)CC3)cc2)cc1 (stereo in doubt) [Example 10]', 'µM', 0.022),
  ('Cc1cc(N2CCN(c3ccc(C(=O)Nc4ccc(F)cc4)cc3C)CC2)ccc1OC[C@@H]1CO[C@@](Cn2cncn2)(c2ccc(F)cc2F)C1 [Example 32]', 'µM', 0.0697),
  ('Cc1cc(N2CCN(c3ccc(C(=O)Nc4ccc(S(=O)(=O)N(C)C)cc4)cc3)CC2)ccc1OC[C@@H]1CO[C@@](Cn2cncn2)(c2ccc(F)cc2F)C1 [Example 21]', 'µM', 0.0374),
  ('NS(=O)(=O)c1ccc(NC(=O)c2ccc(N3CCN(c4ccc(OCC5CO[C@@](Cn6cncn6)(c6ccc(F)cc6F)C5)c(F)c4)CC3)cc2)cc1 (stereo in doubt) [Example 22]', 'µM', 0.0113),
  ('Cc1cc(N2CCN(c3ccc(C(=O)Nc4ccc(C#N)cc4)cc3)CC2)cc(C)c1OC[C@@H]1CO[C@@](Cn2cncn2)(c2ccc(F)cc2F)C1 [Example 11]', 'µM', 0.0236),
  ('Cc1cc(N2CCN(c3ccc(C(=O)Nc4ccc(OC(F)F)cc4)cc3)CC2)ccc1OC[C@@H]1CO[C@@](Cn2cncn2)(c2ccc(F)cc2F)C1 [Example 12]', 'µM', 0.0134),
  ('Cc1cc(N2CCN(c3ccc(C(=O)Nc4cccc(C#N)n4)cc3)CC2)ccc1OC[C@@H]1CO[C@@](Cn2cncn2)(c2ccc(F)cc2F)C1 [Example 36]', 'µM', 0.041),
  ('Cc1cc(N2CCN(c3ccc(C(=O)Nc4ccc(F)c(F)c4)cc3)CC2)ccc1OC[C@@H]1CO[C@@](Cn2cncn2)(c2ccc(F)cc2F)C1 [Example 27]', 'µM', 0.0193),
  ('Cc1cc(N2CCN(c3ccc(C(=O)Nc4cc(F)cc(F)c4)cc3)CC2)ccc1OC[C@@H]1CO[C@@](Cn2cncn2)(c2ccc(F)cc2F)C1 [Example 28]', 'µM', 0.0319),
  ('Cc1cc(N2CCN(c3ccc(C(=O)Nc4ccc(F)cc4)c(C)c3)CC2)ccc1OC[C@@H]1CO[C@@](Cn2cncn2)(c2ccc(F)cc2F)C1 [Example 33]', 'µM', 0.0135),
  ('COc1cc(N2CCN(c3ccc(OC[C@@H]4CO[C@@](Cn5cncn5)(c5ccc(F)cc5F)C4)c(C)c3)CC2)ccc1C(=O)Nc1ccc(F)cc1 [Example 35]', 'µM', 0.0634),
  ('O=C(Nc1ccc(F)cc1)c1ccc(N2CCN(c3ccc(OCC4CO[C@@](Cn5cncn5)(c5ccc(F)cc5F)C4)c(Cl)c3)CC2)cc1 (stereo in doubt) [Example 18]', 'µM', 0.0222);
